tested on: HIV-1 Y188L; assay: microbe, parasite or virus in culture; assay type: cell-based, human immunodeficiency virus type 1 (HIV-1); details: Human immunodeficiency virus 1, read-out: EC50 Y188L (nM)
endpoint.name: EC50

Example compounds with recorded EC50:
>>> result("Cc1cc(Br)cc(Cl)c1Oc1nc(Nc2ccc(C#N)cc2)nc2cc[nH]c12")
"< 10 nM"
>>> result("Cc1cc(C#N)cc(C)c1Oc1nc(Nc2ccc(C#N)cc2)nc2c(Br)cn(C)c12")
"< 10 nM"

Please look at the following compound next.
# input Report EC50 for Cc1cc(C#N)cc(C)c1Oc1nc(Nc2ccc(C#N)cc2)nc2ccn(Cc3ccccc3)c12
# output 10 to 100 nM

* * *

Provide the recorded EC50 for the entries that follow.
tested on: HIV-1 Y181C; assay: microbe, parasite or virus in culture; type: cell-based, human immunodeficiency virus type 1 (HIV-1); conditions: Human immunodeficiency virus 1, read-out: EC50 Y181C (nM), Y181C mutant

>>> result("N#Cc1ccc(Nc2nc(Nc3ccc(C4CC4)c4ccccc34)c3nc[nH]c3n2)cc1 [Cpd 22]")
"> 100 nM"
>>> result("Cc1cc(C)c(Sc2nc(Nc3ccc(C#N)cc3)nc3c(Br)c[nH]c23)c(C)c1 [Cpd 55]")
"10 to 100 nM"

For each of the items listed, what is its EC50?
1. Cc1cc(C#N)cc(C)c1Oc1nc(Nc2ccc(C#N)cc2)nc2c(Br)cn(C)c12 [Cpd 70]
2. Cc1cc(C#N)cc(C)c1Oc1nc(Nc2ccc(C#N)cc2)nc2ccn(Cc3ccccc3)c12 [Cpd 41]
3. Cc1cc(C)c(Sc2nc(Nc3ccc(C#N)cc3)nc3[nH]ccc23)c(C)c1 [Cpd 2]
4. Cc1cc(C)c(Oc2nc(Nc3ccc(C#N)cc3)nc3c2ncn3C)c(C)c1 [Cpd 45]
5. Cc1cc(C)c(Sc2nc(Nc3ccc(C#N)cc3)nc3c(Cl)c[nH]c23)c(C)c1 [Cpd 53]

# output
1: < 10 nM; 2: < 10 nM; 3: 10 to 100 nM; 4: < 10 nM; 5: 10 to 100 nM

* * *

Provide the recorded EC50 for the entries that follow.
test system: HIV-1 L1001-K103N; assay: microbe, parasite or virus in culture; assay type: cell-based, human immunodeficiency virus type 1 (HIV-1); conditions: Human immunodeficiency virus 1, read-out: EC50 L1001-K103N (nM), L1001-K103N mutant

Example compounds with recorded EC50:
>>> result("Cc1cc(C)c(Oc2nc(Nc3ccc(C#N)cc3)nc3c(Cl)cn(C)c23)c(C)c1")
"10 to 100 nM"
>>> result("N#Cc1ccc(Nc2nc(Nc3ccc(C4CC4)c4ccccc34)c3nc[nH]c3n2)cc1")
"> 100 nM"
>>> result("Cc1ccc(Nc2nc(Nc3ccc(C#N)cc3)nc3[nH]cnc23)c2ccccc12")
"> 100 nM"

Please look at the following compound next.
# input Report EC50 for Cc1cc(Cl)cc(C)c1Oc1nc(Nc2ccc(C#N)cc2)nc2cc[nH]c12
# output < 10 nM

* * *

test system: HIV-1 L1001-K103N; test: microbe, parasite or virus in culture; assay type: cell-based, human immunodeficiency virus type 1 (HIV-1); conditions: Human immunodeficiency virus 1, read-out: EC50 L1001-K103N (nM), L1001-K103N mutant
Provide the recorded EC50 for the entries that follow.

Example compounds with recorded EC50:
>>> result("Cc1cc(C)c(Nc2nc(Nc3ccc(C#N)cc3)nc3[nH]ccc23)c(C)c1 [Cpd 4]")
"10 to 100 nM"
>>> result("Cc1cc(C#N)cc(C)c1Oc1nc(Nc2ccc(C#N)cc2)nc2c1ccn2C [Cpd 13]")
"< 10 nM"
>>> result("Cc1cc(Br)cc(Cl)c1Oc1nc(Nc2ccc(C#N)cc2)nc2cc[nH]c12 [Cpd 71]")
"< 10 nM"
>>> result("Cc1cc(C)c(Oc2nc(Nc3ccc(C#N)cc3)nc3[nH]cc(Cl)c23)c(C)c1 [Cpd 18]")
"> 100 nM"
>>> result("Cc1cc(C)c(Sc2nc(Nc3ccc(C#N)cc3)nc3c(Cl)cn(Cc4ccccc4)c23)c(C)c1 [Cpd 54]")
"> 100 nM"

For each of the items listed, what is its EC50?
1. Cc1cc(C)c(Oc2nc(Nc3ccc(C#N)cc3)nc3ccn(Cc4ccccc4)c23)c(C)c1 [Cpd 64]
2. Cc1cc(Cl)cc(C)c1Oc1nc(Nc2ccc(C#N)cc2)nc2c(Cl)cn(C)c12 [Cpd 62]
3. Cc1cc(C)c(Oc2nc(Nc3ccc(C#N)cc3)nc3cc[nH]c23)c(C)c1 [Cpd 37]
4. N#Cc1ccc(Nc2nc(Nc3ccc(C#N)cc3)c3nc[nH]c3n2)cc1 [Cpd 24]
5. CC(=O)c1cc(C)c(Oc2nc(Nc3ccc(C#N)cc3)nc3c(Cl)c[nH]c23)c(C)c1 [Cpd 67]
6. CCn1ccc2c(Oc3c(C)cc(C#N)cc3C)nc(Nc3ccc(C#N)cc3)nc21 [Cpd 26]

# output
1. > 100 nM
2. < 10 nM
3. < 10 nM
4. > 100 nM
5. < 10 nM
6. > 100 nM

# input Report EC50 for Cc1cc(C)c(Oc2nc(Nc3cccc(C(F)(F)F)c3)nc3[nH]cnc23)c(C)c1 [Cpd 39]
# output > 100 nM
